Origin of the recorded values: patent US20240132485A1

Below, each entry is listed alongside its reported Ratio UBE2M WT to KO.
tested on: KBM7 cells (wild-type); assay: KBM7 CTG EC50 assay (UBE2M wild-type); assay type: cell-based, human; conditions: ratio of anti-proliferative activity in KBM7 wild-type versus UBE2M knock-out cells (fold)
Output spec: single numeric token, no unit.

Sample answers from the record:
CC(C)c1cnc(NC(=O)Cc2cn3cc(F)ccc3n2)s1    82.6
O=C(Nc1ncc(C(F)(F)F)s1)C1CC(=O)N(Cc2ccc(Cl)cc2)C1 (stereo not drawn)    42.7
CC(C(=O)Nc1ncc(C(F)(F)F)s1)c1cc2ccccc2s1 (stereo not drawn)    9.4

Read the next record carefully.
Lookup: Fill blank: measured Ratio UBE2M WT to KO of the molecule `Cc1ccc2c(CC(=O)Nc3ccc(Br)cn3)coc2c1C` is ____.
Found: 22.7
